# Assayed Target: acetylcholine receptor
# Experimental Protocol: SPR, peptide at 10 uM, acetylcholine receptor immobilized on chip
Measured Metric: Binding affinity (RU)

Here's what some known entries look like.
[
  {
    "Binder": "RAEFR [5mer-613]",
    "Binding affinity (RU)": 20
  },
  {
    "Binder": "KASNR [5mer-937]",
    "Binding affinity (RU)": 21
  },
  {
    "Binder": "RIEFK [5mer-938]",
    "Binding affinity (RU)": 18
  },
  {
    "Binder": "KCWMK [5mer-923]",
    "Binding affinity (RU)": 19
  },
  {
    "Binder": "KNNIK [5mer-919]",
    "Binding affinity (RU)": 32
  }
]

[P] REHGK [5mer-911]
[Q] RPTMR [5mer-914]
Hi there, can you help? I need to know whether P or Q has lower measured Binding affinity (RU). Your answer should be the label of the entry you select.
P
